- Tested on: attachment of HIV-1RF to CEM-SS cells
- method-notes: attachment of virions to CEM-SS cells (cell-bound p24 ELISA)
- Type: cell-based
- condition: Human immunodeficiency virus 1, CEM-SS; Table 1; read-out: Attachment ID50
pIC50: −log10 of the molar value.

| given-smiles | pIC50 |
| --- | --- |
| O=c1c2ccccc2n2nnc3ccc(NCCCN4CCN(CCCNc5ccc6nnn7c8ccccc8c(=O)c5c67)CC4)c1c32 | < 4.00 |

----------
- Test system: attachment of HIV-1RF to CEM-SS cells
- method-notes: attachment of virions to CEM-SS cells (cell-bound p24 ELISA)
- Assay type: cell-based
- condition: Human immunodeficiency virus 1, CEM-SS, read-out: Attachment ID50

| given-smiles | IC50 |
| --- | --- |
| CN(CCCNc1ccc2ncn3c4ccccc4c(=O)c1c23)CCCNc1ccc2ncn3c4ccccc4c(=O)c1c23 | > 100 µM |
| O=c1c2ccccc2n2cnc3ccc(NCCCN4CCN(CCCNc5ccc6nnn7c8ccccc8c(=O)c5c67)CC4)c1c32 | > 100 µM |
| CN(CCCNc1ccc2ncn3c4ccccc4c(=O)c1c23)CCCNc1ccc2nnn3c4ccccc4c(=O)c1c23 | > 100 µM |

These measurements were taken from patent US6541483B2.
